# maps each entry to its pIC50
Target: C-C chemokine receptor type 5 (Homo sapiens, UniProt P51681)
Sequence (P51681 whole entry): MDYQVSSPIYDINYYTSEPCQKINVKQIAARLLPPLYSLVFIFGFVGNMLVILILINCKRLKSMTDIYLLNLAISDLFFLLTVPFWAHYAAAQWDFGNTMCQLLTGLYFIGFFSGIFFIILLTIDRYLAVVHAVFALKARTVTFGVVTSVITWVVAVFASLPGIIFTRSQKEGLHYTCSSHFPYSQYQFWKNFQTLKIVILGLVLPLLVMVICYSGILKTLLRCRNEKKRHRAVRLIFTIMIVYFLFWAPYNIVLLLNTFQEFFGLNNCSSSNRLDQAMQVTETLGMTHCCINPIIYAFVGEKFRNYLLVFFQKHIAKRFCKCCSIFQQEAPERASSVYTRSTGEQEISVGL
Test: Binding affinity against C-C chemokine receptor type 5 stably expressed in Chinese hamster ovary (CHO) cells using [125I]-MIP-1 alpha as the radioligand
Assay type: cell-based
Schema: pIC50 number; meaning minus log10 of the concentration expressed in molar units.

Take a look at these entries with their results.
C=CCN(C(=O)OCc1ccc([N+](=O)[O-])cc1)C1CCN(CCC(Cn2cc3ccccc3n2)c2ccccc2)CC1 (centres undefined)	7.57
C=CCN(C(=O)OCc1ccc([N+](=O)[O-])cc1)C1CCN(CCC(Cn2cnc(-c3ccccc3)c2)c2ccccc2)CC1 (centres undefined)	7.64
C=CCN(C(=O)OCc1ccc([N+](=O)[O-])cc1)C1CCN(CCC(Cn2ncc3ccccc32)c2ccccc2)CC1 (centres undefined)	7.82

// moving on: another record for pIC50
The recorded pIC50 for C=CCN(C(=O)OCc1ccc([N+](=O)[O-])cc1)C1CCN(CCC(C)(Cn2cnc3ccccc32)c2ccccc2)CC1 (centres undefined) is 8.00

Ref: ChEMBL document CHEMBL1133867
